Entries annotated with measured Wnt reporter firefly/Renilla luciferase ratio
# Tested on: HEK293T (UBE3A T485A transfected, BAR Wnt reporter)
# Procedure summary: Wnt reporter firefly/Renilla luciferase ratio relative to plate median (fold (linear ratio)); higher = more Wnt/beta-catenin reporter activation
# Measurement conditions: concentration: 100 uM; 24 h
Over roughly 1,100 compounds, “Wnt reporter firefly/Renilla luciferase ratio relative to plate median” has its median near 1.1; the highest 2% begin near 1.6. Only a selection was taken, and the highest values are over-represented in it overall.
Parameter: Wnt reporter firefly/Renilla luciferase ratio

{"Molecule": "CC1COc2c(N3CCN(C)CC3)c(F)cc3c(=O)c(C(=O)O)cn1c23 (stereo not given)", "Result value": 1.45}
{"Molecule": "NS(=O)(=O)c1cc2c(cc1Cl)NCNS2(=O)=O [Hydrochlorothiazide]", "Result value": 1.32}
{"Molecule": "C1N2CN3CN1CN(C2)C3", "Result value": 1.71}
{"Molecule": "COc1ccc(C(=O)Nc2nc3ccccc3c(NCc3ccccc3)c2C#N)cc1", "Result value": 0.357}
{"Molecule": "O=c1nc(-c2ccc(C(F)(F)F)cc2)[nH]c2c1CSCC2", "Result value": 0.578}
{"Molecule": "C=CCc1ccc(O)c(OC)c1", "Result value": 1.55}
{"Molecule": "COc1c(N2CC3CCCNC3C2)c(F)cc2c(=O)c(C(=O)O)cn(C3CC3)c12 (stereo not given)", "Result value": 0.752}
{"Molecule": "c1ccc2c(c1)-c1cccc3c1c-2cc1ccccc13", "Result value": 1.45}
{"Molecule": "O=C(O)c1cn(C2CC2)c2cc(N3CCNCC3)c(F)cc2c1=O", "Result value": 1.74}
{"Molecule": "c1ccc2cc3ccccc3cc2c1", "Result value": 2.12}

---

# Test system: HEK293T (UBE3A T485A transfected, BAR Wnt reporter)
# Procedure summary: Wnt reporter firefly/Renilla luciferase ratio relative to plate median (fold (linear ratio)); higher = more Wnt/beta-catenin reporter activation
# Measurement conditions: concentration: 0.1 uM; 24 h
In all, about 1,100 compounds were measured (“Wnt reporter firefly/Renilla luciferase ratio relative to plate median”: median about 1.1, highest 2% from about 1.6 on). The sample as a whole holds a higher share of the highest values than the screen did.
Entries annotated with measured Wnt reporter firefly/Renilla luciferase ratio
Parameter: Wnt reporter firefly/Renilla luciferase ratio

{"Molecule": "NC(=O)N1C(=O)C(C(=O)c2cc(Cl)cs2)c2cc(F)c(Cl)cc21 (stereo not drawn)", "Experimental system": "HEK293T (UBE3A T485A transfected, BAR Wnt reporter)", "Result value": 0.988}
{"Molecule": "CC1CCC(NC(=O)N(CCCl)N=O)CC1 (stereo not drawn)", "Experimental system": "HEK293T (UBE3A T485A transfected, BAR Wnt reporter)", "Result value": 0.921}
{"Molecule": "C[C@]12CC[C@@H]3c4ccc(O)cc4CC[C@H]3[C@@H]1CC[C@@H]2O", "Experimental system": "HEK293T (UBE3A T485A transfected, BAR Wnt reporter)", "Result value": 0.999}
{"Molecule": "O=C(O)C1(C(=O)Nc2ccc(Cl)cc2Cl)CC1 [Cyclanilide]", "Experimental system": "HEK293T (UBE3A T485A transfected, BAR Wnt reporter)", "Result value": 1.6}
{"Molecule": "COC(=O)c1ccccc1C(=O)O [Monomethyl phthalate]", "Experimental system": "HEK293T (UBE3A T485A transfected, BAR Wnt reporter)", "Result value": 1.05}
{"Molecule": "C#C[C@]1(O)CC[C@H]2[C@@H]3CCC4=CC(=O)CC[C@@H]4[C@H]3CC[C@@]21CC", "Experimental system": "HEK293T (UBE3A T485A transfected, BAR Wnt reporter)", "Result value": 0.82}
{"Molecule": "CC(=O)[C@@]1(O)CC[C@H]2[C@@H]3CCC4=CC(=O)CC[C@]4(C)[C@H]3CC[C@@]21C [17alpha-Hydroxyprogesterone]", "Experimental system": "HEK293T (UBE3A T485A transfected, BAR Wnt reporter)", "Result value": 1.06}
{"Molecule": "O=c1ccn(C2OC(COP(=O)(O)OP(=O)(O)OP(=O)(O)O)C(O)C2O)c(=O)[nH]1 (stereo not drawn)", "Experimental system": "HEK293T (UBE3A T485A transfected, BAR Wnt reporter)", "Result value": 1.13}
{"Molecule": "Oc1ccc(O)cc1 [Hydroquinone]", "Experimental system": "HEK293T (UBE3A T485A transfected, BAR Wnt reporter)", "Result value": 0.941}
{"Molecule": "Cc1ccc2ncccc2c1", "Experimental system": "HEK293T (UBE3A T485A transfected, BAR Wnt reporter)", "Result value": 0.931}
{"Molecule": "Cl.NCC1(Cc2noc(=O)[nH]2)CCCCC1", "Experimental system": "HEK293T (UBE3A T485A transfected, BAR Wnt reporter)", "Result value": 0.992}
{"Molecule": "CCc1ccc(CCOc2ccc(CC3SC(=O)NC3=O)cc2)nc1.Cl (stereo not drawn) [Pioglitazone hydrochloride]", "Experimental system": "HEK293T (UBE3A T485A transfected, BAR Wnt reporter)", "Result value": 0.94}
{"Molecule": "CS(=O)(=O)O.Cc1nccn1-c1ccc(Sc2cccc(C3(C(N)=O)CCOCC3)c2)cc1", "Experimental system": "HEK293T (UBE3A T485A transfected, BAR Wnt reporter)", "Result value": 1.01}
{"Molecule": "CC(C)CCCCCCOC(=O)c1ccc(C(=O)OCCCCCCC(C)C)c(C(=O)OCCCCCCC(C)C)c1 [Triisononyl trimellitate]", "Experimental system": "HEK293T (UBE3A T485A transfected, BAR Wnt reporter)", "Result value": 1.08}
{"Molecule": "CC(=O)Oc1ccccc1C(=O)O", "Experimental system": "HEK293T (UBE3A T485A transfected, BAR Wnt reporter)", "Result value": 1.2}
{"Molecule": "Oc1ccc2ccccc2c1/N=N/c1ccccc1", "Experimental system": "HEK293T (UBE3A T485A transfected, BAR Wnt reporter)", "Result value": 1.12}
{"Molecule": "C=CC(=C)CCC=C(C)C", "Experimental system": "HEK293T (UBE3A T485A transfected, BAR Wnt reporter)", "Result value": 1.05}
{"Molecule": "CC(=O)OC1C(=O)C2(C)C(O)CC3OCC3(OC(C)=O)C2C(OC(=O)c2ccccc2)C2(O)CC(OC(=O)C(O)C(NC(=O)c3ccccc3)c3ccccc3)C(C)=C1C2(C)C (stereo not drawn)", "Experimental system": "HEK293T (UBE3A T485A transfected, BAR Wnt reporter)", "Result value": 0.822}
{"Molecule": "Cc1cc(F)ccc1-c1cc(N2CC[C@@H](O)[C@H]2CO)ncc1N(C)C(=O)C(C)(C)c1cc(C(F)(F)F)cc(C(F)(F)F)c1", "Experimental system": "HEK293T (UBE3A T485A transfected, BAR Wnt reporter)", "Result value": 1.27}
{"Molecule": "CCCCc1oc2ccccc2c1C(=O)c1cc(I)c(OCCN(CC)CC)c(I)c1.Cl [Amiodarone hydrochloride]", "Experimental system": "HEK293T (UBE3A T485A transfected, BAR Wnt reporter)", "Result value": 1.18}
{"Molecule": "CC(C)=CCC/C(C)=C/CO", "Experimental system": "HEK293T (UBE3A T485A transfected, BAR Wnt reporter)", "Result value": 1.1}
{"Molecule": "c1ccc2cc3ccccc3cc2c1", "Experimental system": "HEK293T (UBE3A T485A transfected, BAR Wnt reporter)", "Result value": 0.982}
{"Molecule": "CCNc1cccc(C)c1", "Experimental system": "HEK293T (UBE3A T485A transfected, BAR Wnt reporter)", "Result value": 0.98}
{"Molecule": "CCOCCOCCOCCO [2-[2-(2-Ethoxyethoxy)ethoxy]ethanol]", "Experimental system": "HEK293T (UBE3A T485A transfected, BAR Wnt reporter)", "Result value": 0.979}
{"Molecule": "Cc1cn([C@H]2C=C[C@@H](CO)O2)c(=O)[nH]c1=O", "Experimental system": "HEK293T (UBE3A T485A transfected, BAR Wnt reporter)", "Result value": 1.03}
{"Molecule": "CC(C)COC(=O)CCCCC(=O)OCC(C)C [Diisobutyl adipate]", "Experimental system": "HEK293T (UBE3A T485A transfected, BAR Wnt reporter)", "Result value": 1.11}
{"Molecule": "c1ccc2cc3c(ccc4ccccc43)cc2c1", "Experimental system": "HEK293T (UBE3A T485A transfected, BAR Wnt reporter)", "Result value": 1}
{"Molecule": "COc1cc2c3c(n(CCCn4ccnc4)c(=O)c2cc1OC)-c1cc2c(cc1C3=O)OCO2.Cl", "Experimental system": "HEK293T (UBE3A T485A transfected, BAR Wnt reporter)", "Result value": 0.457}
{"Molecule": "c1ccc2ncccc2c1", "Experimental system": "HEK293T (UBE3A T485A transfected, BAR Wnt reporter)", "Result value": 0.857}
{"Molecule": "CC[C@H](C)[C@@H](C(=O)O)n1sc2ccccc2c1=O", "Experimental system": "HEK293T (UBE3A T485A transfected, BAR Wnt reporter)", "Result value": 0.996}
{"Molecule": "Cc1ccc(N(C)C)cc1", "Experimental system": "HEK293T (UBE3A T485A transfected, BAR Wnt reporter)", "Result value": 1.08}
{"Molecule": "CC(C)=CCCC(C)CCO (stereo not drawn)", "Experimental system": "HEK293T (UBE3A T485A transfected, BAR Wnt reporter)", "Result value": 1.07}
{"Molecule": "CCOCCOCCO", "Experimental system": "HEK293T (UBE3A T485A transfected, BAR Wnt reporter)", "Result value": 0.833}
{"Molecule": "CCC(C)c1ccccc1O (stereo not drawn)", "Experimental system": "HEK293T (UBE3A T485A transfected, BAR Wnt reporter)", "Result value": 1.19}
{"Molecule": "Cc1cn([C@H]2C[C@H](N=[N+]=[N-])[C@@H](CO)O2)c(=O)[nH]c1=O", "Experimental system": "HEK293T (UBE3A T485A transfected, BAR Wnt reporter)", "Result value": 1.15}
{"Molecule": "NC(CCCP(=O)(O)O)C(=O)O (racemic)", "Experimental system": "HEK293T (UBE3A T485A transfected, BAR Wnt reporter)", "Result value": 1.19}
{"Molecule": "CC(C)(O)c1ccc(CNC(=O)c2cccnc2Oc2ccc(F)cc2)cc1", "Experimental system": "HEK293T (UBE3A T485A transfected, BAR Wnt reporter)", "Result value": 0.96}
{"Molecule": "CC(C)(C)c1ccccc1", "Experimental system": "HEK293T (UBE3A T485A transfected, BAR Wnt reporter)", "Result value": 1.01}

The values you see were collected from the supplement of paper PMC9254222.
